target: S1P1 (Homo sapiens); test: CNG cAMP Assay (Assay 1); assay type: cell-based; set-up: host or cells: HEK293 cells expressing the CNG channel; conditions: footnote 1: Relative EC50 was measured, read-out: Assay 1 Relative EC50
Sequence (P21453 whole entry): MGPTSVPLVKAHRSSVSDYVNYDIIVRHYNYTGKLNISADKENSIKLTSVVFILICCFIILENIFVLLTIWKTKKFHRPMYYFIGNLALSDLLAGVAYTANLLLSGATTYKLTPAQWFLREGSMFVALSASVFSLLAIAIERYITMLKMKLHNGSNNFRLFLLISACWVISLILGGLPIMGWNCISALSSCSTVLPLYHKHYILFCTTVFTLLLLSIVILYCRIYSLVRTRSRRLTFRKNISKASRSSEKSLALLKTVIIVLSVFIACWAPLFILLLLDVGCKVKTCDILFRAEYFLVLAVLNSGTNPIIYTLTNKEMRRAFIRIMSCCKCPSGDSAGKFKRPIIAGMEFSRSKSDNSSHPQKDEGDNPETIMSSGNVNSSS
value.kind: EC50

Take a look at these entries with their results.
{"compound": "CC(Oc1cc(Cl)c(-c2nc(-c3cn4cc(C(F)(F)F)cc(Cl)c4n3)no2)cc1F)C(=O)O (stereo not shown) [Example 205]", "EC50": "0.1 to 0.5 µM"}
{"compound": "CC(C)(CO)Oc1c(F)cc(-c2noc(-c3cn4cc(C(F)(F)F)cc(Cl)c4n3)n2)cc1Cl [Example 262]", "EC50": "1 to 5 µM"}
{"compound": "O=C(O)C1CN(Cc2ccc(-c3nc(-c4cn5cc(C(F)(F)F)cc(Cl)c5n4)no3)cc2)C1 [Example 231]", "EC50": "5 to 10 µM"}
{"compound": "OCCN1CCC(Oc2ccc(-c3noc(-c4cn5cc(C(F)(F)F)cc(Cl)c5n4)n3)c(Cl)c2)C1 (stereo not shown) [Example 210]", "EC50": "1 to 5 µM"}
{"compound": "CCNC(CC(=O)O)c1ccc(-c2noc(-c3cn4cc(C(F)(F)F)cc(Cl)c4n3)n2)c(Cl)c1 (stereo not shown) [Example 137]", "EC50": "1 to 5 µM"}
{"compound": "CS(=O)(=O)Nc1ccc(-c2noc(-c3cn4cc(C#N)cc(Cl)c4n3)n2)c(Cl)c1 [Example 269]", "EC50": "5 to 10 µM"}
{"compound": "CC(C)(Oc1ccc(-c2noc(-c3cn4cc(C(F)(F)F)cc(Cl)c4n3)n2)c(Cl)c1)C(=O)O [Example 254]", "EC50": "5 to 10 µM"}
{"compound": "Cc1cc(Cl)c2nc(-c3nc(-c4ccc(NS(C)(=O)=O)cc4Cl)no3)cn2c1 [Example 270]", "EC50": "5 to 10 µM"}

Please look at this compound and report its EC50: CS(=O)(=O)Nc1c(F)cc(-c2nc(-c3cn4cc(C(F)(F)F)cc(Cl)c4n3)no2)cc1Cl [Example 236]
5 to 10 µM

Identify measured EC50 associated with Cc1cc(C2CC2C(=O)O)c(F)cc1-c1nc(-c2cn3cc(C(F)(F)F)cc(Cl)c3n2)no1 (stereo not shown) [Example 237]
5 to 10 µM
